Assayed system: CPP32 (Homo sapiens)
Sequence (P42574 29-175 limits assumed, species assumed): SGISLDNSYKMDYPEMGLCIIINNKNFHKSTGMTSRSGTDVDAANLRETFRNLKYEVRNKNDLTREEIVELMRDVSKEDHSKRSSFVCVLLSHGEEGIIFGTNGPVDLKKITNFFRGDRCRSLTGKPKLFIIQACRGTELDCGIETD
Sequence (P42574 176-277 limits assumed, species assumed): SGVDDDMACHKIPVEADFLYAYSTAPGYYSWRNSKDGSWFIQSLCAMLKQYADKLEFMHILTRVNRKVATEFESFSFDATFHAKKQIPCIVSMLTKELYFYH
Experiment notes: Dissociation constant Ki and irreversible rate constant k3 for irreversible inhibitors (CPP32)
Format: biochemical
Experimental setup: continuous assay 60 min, reaction initiated by adding enzyme to substrate-inhibitor mixture
Observable: CPP32 k3/Ki

Molecule: CC(C)[C@H](NC(=O)C(=O)Nc1cccc2ccccc12)C(=O)N[C@@H](CC(=O)O)C(=O)COc1cccc2ccccc12
Assayed system: CPP32 (Homo sapiens)
Recorded measurement: 180,000 moles^−1 seconds^−1
//
Molecule: C[C@H](NC(=O)C(=O)Nc1ccccc1-c1ccccc1)C(=O)N[C@@H](CC(=O)O)C(=O)COc1ccccc1F
Assayed system: CPP32 (Homo sapiens)
Recorded measurement: 55,600 moles^−1 seconds^−1
//
Molecule: C[C@H](NC(=O)C(=O)Nc1ccccc1Cl)C(=O)N[C@@H](CC(=O)O)C(=O)COC(=O)c1c(Cl)cccc1Cl [Example 42]
Assayed system: CPP32 (Homo sapiens)
Recorded measurement: 842,000 moles^−1 seconds^−1
//
Molecule: C[C@H](NC(=O)C(=O)NC1CCCCC1)C(=O)N[C@@H](CC(=O)O)C(=O)COP(=O)(c1ccccc1)c1ccccc1
Assayed system: CPP32 (Homo sapiens)
Recorded measurement: 137,000 moles^−1 seconds^−1
//
Molecule: CC(C)[C@H](NC(=O)C(=O)NC1CCCc2ccccc21)C(=O)N[C@@H](CC(=O)O)C(=O)COc1c(F)c(F)cc(F)c1F (stereo partly shown)
Assayed system: CPP32 (Homo sapiens)
Recorded measurement: 98,600 moles^−1 seconds^−1
//
Molecule: C[C@H](NC(=O)C(=O)Nc1ccccc1I)C(=O)N[C@@H](CC(=O)O)C(=O)COC(=O)c1c(Cl)cccc1Cl [Example 38]
Assayed system: CPP32 (Homo sapiens)
Recorded measurement: 942,000 moles^−1 seconds^−1
//
Molecule: CC(C)[C@H](NC(=O)C(=O)Nc1nc2ccccc2[nH]1)C(=O)N[C@@H](CC(=O)O)C(=O)COc1c(F)c(F)cc(F)c1F
Assayed system: CPP32 (Homo sapiens)
Recorded measurement: 3,130 moles^−1 seconds^−1
//
Molecule: CC(C)[C@H](NC(=O)C(=O)Nc1c(F)c(F)nc(F)c1F)C(=O)N[C@@H](CC(=O)O)C(=O)COc1c(F)c(F)cc(F)c1F
Assayed system: CPP32 (Homo sapiens)
Recorded measurement: 153,000 moles^−1 seconds^−1
//
Molecule: CC(C)[C@H](NC(=O)C(=O)NC(c1ccccc1)c1ccccc1)C(=O)N[C@@H](CC(=O)O)C(=O)COc1c(F)c(F)cc(F)c1F
Assayed system: CPP32 (Homo sapiens)
Recorded measurement: 5,380 moles^−1 seconds^−1
//
Molecule: C[C@H](NC(=O)C(=O)Nc1ccccc1C(C)(C)C)C(=O)N[C@@H](CC(=O)O)C(=O)COC(=O)c1c(Cl)cccc1Cl [Example 37]
Assayed system: CPP32 (Homo sapiens)
Recorded measurement: 142,000 moles^−1 seconds^−1
//
Molecule: COc1ccccc1NC(=O)C(=O)N[C@H](C(=O)N[C@@H](CC(=O)O)C(=O)COc1c(F)c(F)cc(F)c1F)C(C)C
Assayed system: CPP32 (Homo sapiens)
Recorded measurement: 10,800 moles^−1 seconds^−1
//
Molecule: C[C@H](NC(=O)C(=O)Nc1ccccc1I)C(=O)N[C@@H](CC(=O)O)C(=O)COC(=O)c1c(Cl)cccc1Cl [Example 75]
Assayed system: CPP32 (Homo sapiens)
Recorded measurement: 67,600 moles^−1 seconds^−1
//
Molecule: CC(C)[C@H](NC(=O)C(=O)NC12CC3CC(CC(C3)C1)C2)C(=O)N[C@@H](CC(=O)O)C(=O)COc1c(F)c(F)cc(F)c1F
Assayed system: CPP32 (Homo sapiens)
Recorded measurement: 6,330 moles^−1 seconds^−1
